I'd be grateful if you could share measured pKb for these entries.
biological target: Alpha-1B adrenergic receptor (Rattus norvegicus) (UniProt P15823); assay: Antagonist activity at alpha1B adrenoceptor in Wistar rat spleen assessed as phenylephrine-induced contractions after 30 mins
Sequence (P15823 whole entry): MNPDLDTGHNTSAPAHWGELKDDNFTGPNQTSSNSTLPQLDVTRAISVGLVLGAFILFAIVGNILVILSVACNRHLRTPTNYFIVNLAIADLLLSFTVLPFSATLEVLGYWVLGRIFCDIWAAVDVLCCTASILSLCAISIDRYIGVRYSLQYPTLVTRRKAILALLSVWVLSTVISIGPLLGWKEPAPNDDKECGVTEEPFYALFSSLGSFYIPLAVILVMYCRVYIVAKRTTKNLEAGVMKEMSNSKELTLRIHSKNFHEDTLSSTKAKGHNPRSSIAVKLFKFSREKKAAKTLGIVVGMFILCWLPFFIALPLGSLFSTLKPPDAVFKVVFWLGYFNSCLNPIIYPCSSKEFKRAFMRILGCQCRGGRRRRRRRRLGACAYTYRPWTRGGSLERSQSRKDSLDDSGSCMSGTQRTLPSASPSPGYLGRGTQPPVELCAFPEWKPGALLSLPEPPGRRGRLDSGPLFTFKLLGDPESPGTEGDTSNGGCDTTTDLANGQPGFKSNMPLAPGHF
Give bare numbers.

Check out these entries, answers already filled in.
compound: CCCCNC(=O)N1CCC2(CC1)OCC(CN1CCN(c3ccccc3OC)CC1)O2 (stereo unspecified)
experimental system: Alpha-1B adrenergic receptor (Rattus norvegicus) (UniProt P15823)
numeric result: 7.4
//
compound: COc1ccccc1N1CCN(CC2COC3(CCS(=O)(=O)CC3)O2)CC1 (stereo unspecified)
experimental system: Alpha-1B adrenergic receptor (Rattus norvegicus) (UniProt P15823)
numeric result: 7.66

Below is a list of compounds. For each, state its recorded pKb.
1. COc1ccccc1N1CCN(CC2COC3(CCN(S(=O)(=O)c4ccccc4)CC3)O2)CC1 (stereo unspecified)
2. COc1ccccc1N1CCN(CC2COC3(CCN(S(=O)(=O)c4ccc(OC(F)(F)F)cc4)CC3)O2)CC1 (stereo unspecified)
3. COc1ccccc1N1CCN(CC2COC3(CCN(c4ccccc4)CC3)O2)CC1 (stereo unspecified)
4. COc1ccccc1N1CCN(CC2COC3(CCN(C(=O)c4ccccc4)CC3)O2)CC1 (stereo unspecified)
5. COc1ccccc1N1CCN(CC2COC3(CCN(C(=O)C4CCCN4)CC3)O2)CC1 (stereo unspecified)
6. COc1ccccc1N1CCN(CC2COC3(CCN(C(=O)Nc4ccccc4)CC3)O2)CC1 (stereo unspecified)

Response line:
[7.94, 7.74, 7.56, 8.19, 7.86, 8.18]

Below is a list of compounds. For each, state its recorded pKb.
1. COc1ccccc1N1CCN(CC2COC3(CCCCC3)O2)CC1 (stereo unspecified)
2. COc1ccccc1N1CCN(CC2COC3(CCN(c4ccccn4)CC3)O2)CC1 (stereo unspecified)
3. COc1ccccc1N1CCN(CC2COC3(CCN(C(=O)c4ccc(C(F)(F)F)cc4)CC3)O2)CC1 (stereo unspecified)

Response line:
[6.72, 7.86, 8.33]

Below is a list of compounds. For each, state its recorded pKb.
1. COc1ccccc1N1CCN(CC2COC3(CCN(C(C)=O)CC3)O2)CC1 (stereo unspecified)
2. COc1ccccc1N1CCN(CC2COC3(CCN(S(=O)(=O)c4cccc([N+](=O)[O-])c4)CC3)O2)CC1 (stereo unspecified)
3. COc1ccccc1N1CCN(CC2COC3(CCN(C(=O)c4ccco4)CC3)O2)CC1 (stereo unspecified)
4. COc1ccccc1N1CCN(CC2COC3(CCN(Cc4ccccc4)CC3)O2)CC1 (stereo unspecified)

Response line:
1. 7.72
2. 8.14
3. 7.69
4. 7.18

Record COc1ccccc1N1CCN(CC2COC3(CCN(S(=O)(=O)c4ccc(C)cc4)CC3)O2)CC1 (stereo unspecified) / Alpha-1B adrenergic receptor (Rattus norvegicus) (UniProt P15823), pKb recorded as 7.91

###

Target: Alpha-1B adrenergic receptor (Homo sapiens, UniProt P35368)
Sequence (P35368 whole entry): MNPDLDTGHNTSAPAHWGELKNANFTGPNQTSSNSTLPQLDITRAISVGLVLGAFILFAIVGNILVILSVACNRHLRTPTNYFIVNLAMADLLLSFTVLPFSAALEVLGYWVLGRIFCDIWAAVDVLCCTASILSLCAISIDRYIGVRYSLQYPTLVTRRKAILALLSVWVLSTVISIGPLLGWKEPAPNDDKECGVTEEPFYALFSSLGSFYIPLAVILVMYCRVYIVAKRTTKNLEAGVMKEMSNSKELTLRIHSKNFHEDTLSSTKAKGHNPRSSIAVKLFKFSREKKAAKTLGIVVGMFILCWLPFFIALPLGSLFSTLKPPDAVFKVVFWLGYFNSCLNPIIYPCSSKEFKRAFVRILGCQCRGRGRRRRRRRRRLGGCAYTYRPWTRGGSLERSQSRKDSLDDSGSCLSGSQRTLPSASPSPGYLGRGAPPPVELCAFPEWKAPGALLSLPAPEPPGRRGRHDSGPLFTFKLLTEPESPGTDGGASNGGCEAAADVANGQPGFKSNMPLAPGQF
Experiment: Displacement of [3H]prazosin from human recombinant alpha1B adrenoceptor expressed in CHO cells after 30 mins by liquid scintillation counting
observable: Ki

Check out these entries, answers already filled in.
compound: COc1ccccc1N1CCN(CC2COC3(CCN(S(C)(=O)=O)CC3)O2)CC1 (stereo not given)
result: 363 nM
//
compound: COc1ccccc1N1CCN(CC2COC3(CC[S+]([O-])CC3)O2)CC1 (stereo not given)
result: 479 nM
//
compound: COc1ccccc1N1CCN(CC2COC3(CCN(S(=O)(=O)c4ccc(C)cc4)CC3)O2)CC1 (stereo not given)
result: 8.32 nM
//
compound: COc1ccccc1N1CCN(CC2COC3(CCN(c4ccccc4)CC3)O2)CC1 (stereo not given)
result: 155 nM
//
compound: COc1ccccc1N1CCN(CC2COC3(CCN(C(=O)Nc4ccccc4)CC3)O2)CC1 (stereo not given)
result: 81.3 nM
//
compound: COc1ccccc1N1CCN(CC2COC3(CCN(C(=O)C4CCCN4)CC3)O2)CC1 (stereo not given)
result: 158 nM
//
compound: COc1ccccc1N1CCN(CC2COC3(CCN(C(=O)c4ccccc4)CC3)O2)CC1 (stereo not given)
result: 67.6 nM
//
compound: COc1ccccc1N1CCN(CC2COC3(CCNCC3)O2)CC1 (stereo not given)
result: 42.7 nM

Below is a list of compounds. For each, state its recorded Ki.
1. COc1ccccc1N1CCN(CC2COC3(CCN(C(=O)c4ccc(C(F)(F)F)cc4)CC3)O2)CC1 (stereo not given)
2. COc1ccccc1N1CCN(CC2COC3(CCN(C(C)=O)CC3)O2)CC1 (stereo not given)

Response line:
1: 63.1 nM; 2: 1000 nM
